Field: inhibition at 0.123 µM. Provide a value for each of the molecules that follow.
- measurement.target: AhR (Homo sapiens, UniProt P35869)
- Construct: host or cells: HepG2
- method: In vitro assay 4: endogenous AhR activity assay (CYP1A1 and CYP1B1 mRNA, qRT-PCR, HepG2 cells)
- Format: cell-based
- condition.summary: TCDD 10 nM with compound 123 nM, 4 hours, mRNA relative to β-actin, read-out: CYP1A1 (% Inhibition)
Give just the number in %; leave the unit off.

Hello, I am looking for reported inhibition at 0.123 µM with AhR (Homo sapiens, UniProt P35869) for `O=c1c2cc(-c3ccc(C(F)(F)F)cc3)nc(-c3cccnc3)c2ncn1[C@@H]1CCCC[C@@H]1O` . Could you help? 99.6

Item: CC(=O)NCC(C)n1cnc2c(-c3cccnc3)nc(-c3ccc(Cl)cc3)cc2c1=O (stereo not drawn) Test system: AhR (Homo sapiens, UniProt P35869) Read-out: inhibition at 0.123 µM Value: ? 99.2

# query: inhibition at 0.123 µM | item `CC(=O)N1CCC(n2cnc3c(-c4cccnc4)nc(-c4ccc(Cl)cc4)cc3c2=O)CC1` | system: AhR (Homo sapiens, UniProt P35869) 99.9

====

- measurement.target: AhR (Mus musculus, UniProt P30561)
- Sequence (P30561 1-848): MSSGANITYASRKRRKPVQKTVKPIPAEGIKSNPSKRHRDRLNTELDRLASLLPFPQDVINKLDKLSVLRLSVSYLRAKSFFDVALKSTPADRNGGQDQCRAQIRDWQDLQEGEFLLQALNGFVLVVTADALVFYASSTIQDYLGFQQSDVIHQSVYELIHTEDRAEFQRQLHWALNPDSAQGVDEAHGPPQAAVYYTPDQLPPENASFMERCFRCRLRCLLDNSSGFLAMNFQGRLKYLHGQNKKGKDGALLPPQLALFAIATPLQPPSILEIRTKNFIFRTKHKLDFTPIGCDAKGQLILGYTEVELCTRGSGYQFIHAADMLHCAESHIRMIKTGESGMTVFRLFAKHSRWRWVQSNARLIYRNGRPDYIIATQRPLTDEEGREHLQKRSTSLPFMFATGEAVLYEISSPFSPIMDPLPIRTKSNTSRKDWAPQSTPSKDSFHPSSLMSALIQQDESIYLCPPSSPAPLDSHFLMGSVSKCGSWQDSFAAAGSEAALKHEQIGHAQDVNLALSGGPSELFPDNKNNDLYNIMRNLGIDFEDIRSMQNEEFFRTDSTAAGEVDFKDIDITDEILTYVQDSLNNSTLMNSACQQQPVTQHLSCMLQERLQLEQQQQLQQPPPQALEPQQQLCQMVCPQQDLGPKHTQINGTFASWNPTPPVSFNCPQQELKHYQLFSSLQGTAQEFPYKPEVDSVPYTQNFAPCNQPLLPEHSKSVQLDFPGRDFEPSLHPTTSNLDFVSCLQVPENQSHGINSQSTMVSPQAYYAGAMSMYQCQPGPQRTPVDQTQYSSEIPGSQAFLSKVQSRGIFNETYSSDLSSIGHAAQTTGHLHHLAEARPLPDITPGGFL
- method: In vitro assay 2: XRE-luciferase reporter assay, antagonism in mouse cell line (Hepa1c1c7)
- Assay type: cell-based
- condition.summary: Hepa1c1c7 XRE-Luc, cells treated with kynurenine (#), 6 hours
pIC50: −log10 of the molar value.
property: pIC50

Would you kindly share the measured pIC50 for O=c1c2cc(-c3ccc(C(F)(F)F)cc3)nc(-c3cccnc3)c2ncn1CC(O)CO (stereo not shown) ? 7.00 to 8.00

Give the measured pIC50 of CC(CO)n1cnc2c(-c3cccnc3)nc(-c3ccc(Cl)cc3)cc2c1=O (stereo not shown) . > 8.00

Bench note: what pIC50 did CC(=O)NCC(C)n1cnc2c(-c3cccnc3)nc(-c3ccc(Cl)cc3)cc2c1=O (stereo not shown) show? 7.00 to 8.00

# query: pIC50 of entry CC(CO)n1cnc2c(-c3cccnc3)nc(-c3ccc(N4CCOCC4)cc3)cc2c1=O (stereo not shown) 7.00 to 8.00

====

- measurement.target: AhR (Homo sapiens)
- Construct: host or cells: HepG2
- Sequence (P35869 11-848): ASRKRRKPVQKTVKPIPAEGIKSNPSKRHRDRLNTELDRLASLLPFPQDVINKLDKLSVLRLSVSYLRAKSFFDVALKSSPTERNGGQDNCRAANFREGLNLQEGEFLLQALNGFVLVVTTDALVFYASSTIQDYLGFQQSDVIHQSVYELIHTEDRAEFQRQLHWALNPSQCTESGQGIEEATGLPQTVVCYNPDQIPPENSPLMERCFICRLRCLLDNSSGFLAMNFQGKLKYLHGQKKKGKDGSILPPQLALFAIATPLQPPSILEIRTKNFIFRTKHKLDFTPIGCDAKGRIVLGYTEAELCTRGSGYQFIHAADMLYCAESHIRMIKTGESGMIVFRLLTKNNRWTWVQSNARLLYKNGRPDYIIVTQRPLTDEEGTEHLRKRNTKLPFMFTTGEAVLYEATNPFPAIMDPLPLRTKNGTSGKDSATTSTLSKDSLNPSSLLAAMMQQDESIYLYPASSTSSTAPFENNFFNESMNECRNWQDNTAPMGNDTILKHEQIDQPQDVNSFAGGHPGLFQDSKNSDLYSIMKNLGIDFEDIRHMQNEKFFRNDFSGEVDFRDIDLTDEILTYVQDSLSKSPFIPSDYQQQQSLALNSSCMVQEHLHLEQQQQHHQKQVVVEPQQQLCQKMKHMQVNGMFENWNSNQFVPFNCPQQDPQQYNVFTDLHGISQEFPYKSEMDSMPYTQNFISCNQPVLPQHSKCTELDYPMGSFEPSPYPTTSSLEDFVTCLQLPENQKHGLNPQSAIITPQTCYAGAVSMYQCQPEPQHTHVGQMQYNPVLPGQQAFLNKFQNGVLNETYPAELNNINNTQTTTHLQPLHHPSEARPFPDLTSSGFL
- method: In vitro assay 1: XRE-luciferase reporter assay, antagonism in human cell line (HepG2)
- Format: cell-based
- condition.summary: HepG2 XRE-luciferase, cells treated with kynurenine 200 μM (no *), 6 hours; read-out: Assay 1: AhR-Luc Human Antagonism (IC50)
property: IC50

Need IC50, item CC(CNS(C)(=O)=O)n1cnc2c(-c3cccnc3)nc(-c3ccc(Cl)cc3)cc2c1=O (centres unmarked) [Example 89] < 10 nM

Bench note: what IC50 did O=c1c2cc(-c3ccc(C(F)(F)F)cc3)nc(-c3cccnc3)c2ncn1CC(O)CO (centres unmarked) [Example 66] show? < 10 nM

Value lookup for IC50; key = CC(=O)OC(C)(C)Cn1cnc2c(-c3cccnc3)nc(-c3ccc(Cl)cc3)cc2c1=O [Example 36] 10 to 100 nM

Which IC50 is listed for Cn1cc(-c2nc(-c3ccc(C(F)(F)F)cc3)cc3c(=O)n([C@@H]4CCCC[C@@H]4O)cnc23)cn1 [Example 18] ? < 10 nM

May I ask what IC50 has been recorded for O=c1c2cc(-c3ccc(Cl)cc3)nc(-c3cccnc3)c2ncn1C1CCCC(O)C1 (centres unmarked) [Example 63] ? < 10 nM

Looking for the measured IC50 of O=c1c2cc(-c3ccc(Cl)cc3)nc(-c3cccnc3)c2ncn1[C@H]1CC[C@H](O)CC1 [Example 56] , can you help? < 10 nM

# query: IC50 of entry CC(=O)N1CCC(n2cnc3c(-c4cccnc4)nc(-c4ccc(Cl)cc4)cc3c2=O)CC1 [Example 96] < 10 nM

Which value of IC50 has been reported for CC(=O)NCC(C)n1cnc2c(-c3cccnc3)nc(-c3ccc(N4CCOCC4)cc3)cc2c1=O (centres unmarked) [Example 92] in the records? 10 to 100 nM
